assay.comment: Property forecast index (PFI = ChromLogD7.4 + aromatic rings)
Type: physicochemical
Form field: PFI (one value per entry).
Give a plain numeric answer without units written out.

COc1ccc(N2C(=O)c3[nH]nc(CC(C)C)c3C2c2ccc(Br)cc2)cc1 (centres unmarked) [Compound 48]	9.3
CC(C)Cc1n[nH]c2c1C(c1ccc(F)cc1)N(c1ccc(C(C)(C)C)cc1)C2=O (centres unmarked) [Compound 25]	10.5
COc1ccc(N2C(=O)c3[nH]nc(CC(C)C)c3C2c2cccc(OC)c2)cc1 (centres unmarked) [Compound 61]	8.4

PFI in this record for CC(C)Cc1n[nH]c2c1C(c1ccc(F)cc1)N(c1ccc(N(C)C)cc1)C2=O (centres unmarked) [Compound 21] : 9.0

Lab book: PFI of CC(C)Cc1n[nH]c2c1C(c1ccccc1Cl)N(c1ccc3c(c1)OCO3)C2=O (centres unmarked) [Compound 67] noted as 8.7

GET /value?item= CCOc1ccc(N2C(=O)c3[nH]nc(CC(C)C)c3C2c2ccc(F)cc2)cc1 (centres unmarked) [Compound 19] &field=PFI returns 8.9

// COc1ccc(N2C(=O)c3[nH]nc(CC(C)C)c3C2c2cncs2)cc1 (centres unmarked) [Compound S4] : PFI value = 6.5

Item: COc1ccc(N2C(=O)c3[nH]nc(CC(C)C)c3C2c2ccc(F)cc2F)cc1 (centres unmarked) [Compound 63] | PFI: 8.8
